Tested System: Squalene synthase (Rattus norvegicus)
Sequence (Q02769 whole entry): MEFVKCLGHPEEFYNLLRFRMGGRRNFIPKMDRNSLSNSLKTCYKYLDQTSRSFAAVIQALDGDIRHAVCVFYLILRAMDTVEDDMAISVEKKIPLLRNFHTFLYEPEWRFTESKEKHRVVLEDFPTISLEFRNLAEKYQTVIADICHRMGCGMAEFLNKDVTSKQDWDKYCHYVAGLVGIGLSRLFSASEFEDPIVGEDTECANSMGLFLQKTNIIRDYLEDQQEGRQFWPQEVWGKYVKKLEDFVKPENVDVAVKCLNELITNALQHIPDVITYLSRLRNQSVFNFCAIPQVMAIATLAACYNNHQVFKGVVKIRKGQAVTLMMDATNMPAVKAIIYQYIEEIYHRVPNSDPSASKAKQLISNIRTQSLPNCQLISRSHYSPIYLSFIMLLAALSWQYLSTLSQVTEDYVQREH
Metric: pKi
Keep in mind that pKi stands for -log10 of concentration in molar terms.

Input: Under Squalene synthase (Rattus norvegicus): pKi value of `CC(C)=CCC/C(C)=C\CC/C(C)=C/COCP(=O)(O)CP(=O)(O)O` ?
Output: 7.43
